- measurement target: T1, MusCD100-His (mouse, UniProt O09126)
- T1 chain: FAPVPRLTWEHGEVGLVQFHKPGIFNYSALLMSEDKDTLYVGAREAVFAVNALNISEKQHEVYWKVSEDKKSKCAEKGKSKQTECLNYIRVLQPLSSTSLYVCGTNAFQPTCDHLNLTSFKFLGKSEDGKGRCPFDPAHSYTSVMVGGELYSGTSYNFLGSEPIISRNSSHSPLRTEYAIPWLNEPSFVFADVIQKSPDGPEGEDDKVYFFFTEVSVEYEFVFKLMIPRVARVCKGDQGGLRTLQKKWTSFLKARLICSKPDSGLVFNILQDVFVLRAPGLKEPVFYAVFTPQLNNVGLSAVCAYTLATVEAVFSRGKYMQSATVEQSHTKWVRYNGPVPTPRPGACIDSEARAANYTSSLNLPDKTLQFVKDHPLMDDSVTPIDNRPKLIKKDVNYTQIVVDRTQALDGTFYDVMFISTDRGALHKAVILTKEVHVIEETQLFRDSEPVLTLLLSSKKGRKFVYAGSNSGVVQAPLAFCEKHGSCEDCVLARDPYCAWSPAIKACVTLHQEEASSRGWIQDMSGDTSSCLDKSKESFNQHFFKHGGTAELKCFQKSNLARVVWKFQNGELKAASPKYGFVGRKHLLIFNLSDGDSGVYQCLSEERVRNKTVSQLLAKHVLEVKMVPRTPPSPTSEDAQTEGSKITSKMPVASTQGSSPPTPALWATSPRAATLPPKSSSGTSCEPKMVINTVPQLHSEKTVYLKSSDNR
- test details: ELISA
Parameter EC50: see the listing below.
Unit ng/mL implied. Number only.

Example cases with answers are listed next.
binder	readout units	reported measurement
H74 (antibody, V domains shown) VH: QVQLQQWGAGLLKPSETLSLTCAVYGGSFSGYYWSWIRQPPGKGLEWIGEINHSGSTNYNPSLKSRVTISVDTSKNQFSLKLSSVTAADTAVYYCAGTRWLQFPLNYWGQGTLVTVSS VL: SYVLTQPPSVSVSPGQTASITCSGDKLGDKYAYWYQQKPGQSPVLVLYQDAKRPSGIPERFSGSNSGNTATLTISGTQAMDEADYYCQAWDSSTAGYVFGTGTKVTVL	ng/mL	4.78
H21 (antibody, V domains shown) VH: EVQLVQSGGGLVQPGRSLRLSCAASGFTFDDYAMHWVRQAPGKGLEWVSGISWNSGSIGYADSVKGRFTISRDNAKNSLYLQMNSLRAEDTALYYCAKDIGGSYFDYYYYGMDVWGQGTLVTVSS VL: EIVLTQSPATLSLSPGERATLSCRTSHNVNTYIAWYQQKPGQAPRLLFYDSSTRLPDTPARFSGSGSGTDFTLTISSLEPEDFAVYYCQQRTSWPLTFGGGTKVEIK	ng/mL	6.86

Proceed to the following item.
response.value for C-C171 (antibody, V domains shown) VH: QVQLQESGPGLVKPSGTLSLSCTVSGGSMSSNYLWSWVRQTPGKGLQWIGDIFHSGRTYYNPSLKRRVTISVDKSKNQFSLKLSSVTAADTAVYYCARQGWTTPFDYWGQGTPVTVSS VL: DIQLTQSPSSVSASVGDRVTITCRASQGISSWLAWYQQKPGKAPKLLIYAASSLQSGVPSRFSGSGSGTDFTLTISSLQPEDFATYYCLQDVYYPWTFGQGTTVEIK (field: EC50) = 31
